Entries and their measured T/C follow.
# Tested on: L1210 leukemia ip in BDF1 mice, survival T/C
# procedure-summary: NCI In Vivo Anticancer Drug Screen. Data for tumor model L1210 Leukemia (intraperitoneal) in B6D2F1 (BDF1) mice
# recorded-conditions: endpoint: mean survival time; dose: 100.0 mg/kg/injection; schedule: Q04DX003 (ip); vehicle: saline; higher = longer survival
Toxic doses and inconclusive results are not listed. Square brackets hold non-standard residues; d marks the D form. Peptide text beside a SMILES is read from it. * marks the point of attachment. NMeY = CN[CH](Cc1ccc(O)cc1)C(=O)O; Bn = c1ccc(C*)cc1

compound	subject-of-test	T/C
O=C(O)CNCc1ccc(F)cc1	L1210 leukemia ip in BDF1 mice, survival T/C	109 % of control
CNC(Cc1ccc(OCc2ccccc2)cc1)C(=O)NC(CC(C)C)C(=O)OC (stereo unspecified) (H-[NMeY](Bn)-Leu-OMe; configuration not given here)	L1210 leukemia ip in BDF1 mice, survival T/C	104 % of control
CC1C(=O)Nc2ccccc2N1C(=O)CN1CCCC1 (stereo unspecified)	L1210 leukemia ip in BDF1 mice, survival T/C	96 % of control
CCC(C(N)=O)N1C(=O)C2C3CCC(O3)C2C1=O (stereo unspecified)	L1210 leukemia ip in BDF1 mice, survival T/C	101 % of control
Cc1cccc(Nc2c(N)nc(N)nc2N)c1	L1210 leukemia ip in BDF1 mice, survival T/C	104 % of control

QUERY: GET T/C | system: L1210 leukemia ip in BDF1 mice, survival T/C | item: CN(C)CCOC(=O)C1C2CC3OC(=O)C1C3C2 (stereo unspecified)
RESULT: 96 % of control

----------
# Tested on: L1210 leukemia ip in BDF1 mice, survival T/C
# procedure-summary: NCI In Vivo Anticancer Drug Screen. Data for tumor model L1210 Leukemia (intraperitoneal) in B6D2F1 (BDF1) mice
# recorded-conditions: endpoint: mean survival time; dose: 100.0 mg/kg/injection; schedule: Q04DX003 (ip); vehicle: Klucel (hydroxypropylcellulose) (HPC); higher = longer survival
# Procedure: The antitumor activity of compounds was measured in mice bearing transplantable tumors. Survival or tumor size were measured and the results are expressed as the measurement made in the treated group (T) divided by the measurement made in the vehicle treated control group (C). The tumor model used in this assay is L1210 Leukemia (intraperitoneal) in B6D2F1 (BDF1) mice
Inconclusive results and toxic doses are left out.
parameter: T/C

>>> print(df.to_string())
                                   compound            result
0               Cc1c(C#N)oc2c(Cl)cc(Cl)cc12  100 % of control
1  NC(=S)N/N=C(/C(=O)O)c1ccc([N+](=O)[O-])cc1  104 % of control
2                       O=c1ccccn1Cc1ccccc1  106 % of control
3           COC(=O)c1cccc(C)c1C(=O)c1ccccc1  101 % of control
4   CC(C)=CC(=O)NC(=O)NS(=O)(=O)c1ccc(C)cc1  115 % of control

QUERY: # return recorded T/C for input `O=C(OCC(COC(=O)c1ccccc1)(COC(=O)c1ccccc1)COC(=O)c1ccccc1)c1ccccc1`
RESULT: 91 % of control

QUERY: # return recorded T/C for input `CCOC(=O)c1cnc(C)nc1Nc1ccccc1I`
RESULT: 106 % of control

QUERY: # return recorded T/C for input CC(C)C(Sc1nc(N)nc2nc[nH]c12)C(=O)O (centres undefined)
RESULT: 96 % of control
